Please provide measured IC50 for the entries that follow.
Molecular target: human A2A receptor (A2AR) (Homo sapiens (Human), UniProt P29274)
Sequence (P29274 whole entry): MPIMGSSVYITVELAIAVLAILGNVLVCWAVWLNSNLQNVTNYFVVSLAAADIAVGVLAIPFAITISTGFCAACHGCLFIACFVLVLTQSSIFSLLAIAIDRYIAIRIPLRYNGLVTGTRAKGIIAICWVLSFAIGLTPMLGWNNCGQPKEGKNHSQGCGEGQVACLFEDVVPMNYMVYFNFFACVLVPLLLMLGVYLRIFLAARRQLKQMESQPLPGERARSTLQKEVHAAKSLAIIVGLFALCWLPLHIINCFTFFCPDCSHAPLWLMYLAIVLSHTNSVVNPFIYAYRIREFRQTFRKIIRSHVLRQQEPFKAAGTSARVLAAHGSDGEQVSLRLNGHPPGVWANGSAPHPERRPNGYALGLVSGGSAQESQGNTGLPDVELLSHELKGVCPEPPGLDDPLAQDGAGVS
Experiment: Luciferase reporter assay (HEK293-A2AR-luc2p/CRE/Hygro cells)
Type: cell-based
Settings: 3 nM CGS21680, 5 h incubation
Protocol: HEK293 cells were maintained in Dulbecco's modified Eagle's medium (DMEM, Gibco) supplemented with 10% fetal bovine serum (FBS, Thermo Scientific), 100 units/mL penicillin (Gibco), and 0.1 mg/mL streptomycin (Gibco) in a humidified 37° C. environment with 5% CO2. Plasmid encoding wild-type human A2A receptor (A2AR) (in pcDNA3.1) was synthesized by Genscript (Nanjing, China). […] Expression level of A2AR in each single cell clone was determined using immunoblotting and FACS method. […]

In: Look up IC50 for this molecule: CC1(O)CCC(NC(=O)[C@](C)(c2ccccc2)n2ncc3c2nc(N)n2nc(-c4ccco4)nc32)CC1 (stereo in doubt) [Example 33A]
Out: 13.2 nM

In: How about this molecule: CC(Cc1ccccc1)(C(=O)NCC1(O)COC1)n1ncc2c1nc(N)n1nc(-c3ccco3)nc21 (centres unmarked)
Out: 15.7 nM

In: How about this molecule: CC(C(=O)NC[C@H]1CCOC1)(c1ccccc1)n1ncc2c1nc(N)n1nc(-c3ccco3)nc21 (some centres unmarked)
Out: 8.1 nM

In: How about this molecule: C[C@@H](O)CNC(=O)C(C)(c1ccccc1)n1ncc2c1nc(N)n1nc(-c3ccco3)nc21 (some centres unmarked)
Out: 22.6 nM

In: How about this molecule: CC(C(=O)N[C@H]1CC[C@@H](O)C1)(c1ccccc1)n1ncc2c1nc(N)n1nc(-c3ccco3)nc21 (some centres unmarked)
Out: 7.9 nM

In: How about this molecule: CC(C(=O)N[C@H]1CC[C@@](C)(O)CC1)(c1ccccc1)n1ncc2c1nc(N)n1nc(-c3ccco3)nc21 (some centres unmarked)
Out: 8.4 nM

In: How about this molecule: CC(C(=O)NCc1cccc(F)n1)(c1ccccc1)n1ncc2c1nc(N)n1nc(-c3ccco3)nc21 (centres unmarked)
Out: 2.2 nM

In: How about this molecule: Cc1cccnc1CNC(=O)C(C)(c1ccccc1)n1ncc2c1nc(N)n1nc(-c3ccco3)nc21 (centres unmarked)
Out: 0.6 nM

In: How about this molecule: CN(C)CCNC(=O)C(C)(c1ccccc1)n1ncc2c1nc(N)n1nc(-c3ccco3)nc21 (centres unmarked)
Out: 91.1 nM

In: How about this molecule: CC(C(=O)NCC1(O)CC1)(c1ccccc1)n1ncc2c1nc(N)n1nc(-c3ccco3)nc21 (centres unmarked)
Out: 437 nM

In: How about this molecule: COc1ccccc1C(C)(C(=O)N[C@H]1CC[C@@H](O)CC1)n1ncc2c1nc(N)n1nc(-c3ccco3)nc21 (relative stereo)
Out: 1.9 nM

In: How about this molecule: Nc1nc2c(cnn2C(C(=O)NCc2ccc(OC(F)(F)F)cc2)c2ccccc2)c2nc(-c3ccco3)nn12 (centres unmarked)
Out: 5.6 nM

In: How about this molecule: Nc1nc2c(cnn2C(C(=O)N[C@H]2CCOc3ccccc32)c2ccccc2)c2nc(-c3ccco3)nn12 (some centres unmarked)
Out: 44.6 nM

In: How about this molecule: COc1ccc(CNC(=O)C(c2ccccc2)n2ncc3c2nc(N)n2nc(-c4ccco4)nc32)cc1 (centres unmarked)
Out: 1.6 nM

In: How about this molecule: CC(C(=O)Nc1ccccc1)(c1ccccc1)n1ncc2c1nc(N)n1nc(-c3ccco3)nc21 (centres unmarked)
Out: 9.5 nM

In: How about this molecule: Cc1ccc(CNC(=O)[C@@](C)(c2ccccc2)n2ncc3c2nc(N)n2nc(-c4ccco4)nc32)nc1 [Example 109B]
Out: 0.7 nM

In: How about this molecule: COc1cccc(CNC(=O)[C@@](C)(c2ccccc2)n2ncc3c2nc(N)n2nc(-c4ccco4)nc32)n1 [Example 112B]
Out: 1.2 nM

In: How about this molecule: C[C@](C(=O)NCc1cccc(C(F)(F)F)n1)(c1ccccc1)n1ncc2c1nc(N)n1nc(-c3ccco3)nc21 [Example 144B]
Out: 2.1 nM

In: How about this molecule: COc1cccc(C(C)(C(=O)NCC2(O)COC2)n2ncc3c2nc(N)n2nc(-c4ccco4)nc32)c1 (centres unmarked)
Out: 13 nM

In: How about this molecule: CC(C(=O)N[C@@H]1CCCNC1)(c1ccccc1)n1ncc2c1nc(N)n1nc(-c3ccco3)nc21 (some centres unmarked)
Out: 75.5 nM

In: How about this molecule: CC(C(=O)N[C@@H]1CC[C@H](O)C1)(c1ccccc1)n1ncc2c1nc(N)n1nc(-c3ccco3)nc21 (some centres unmarked)
Out: 11.2 nM

In: How about this molecule: Nc1nc2c(cnn2C(C(=O)N[C@@H]2CCOc3ccccc32)c2ccccc2)c2nc(-c3ccco3)nn12 (some centres unmarked)
Out: 7.9 nM

In: How about this molecule: Cc1cccc(C(C)(C(=O)NCC2(O)COC2)n2ncc3c2nc(N)n2nc(-c4ccco4)nc32)c1 (centres unmarked)
Out: 7.3 nM

In: How about this molecule: C[C@](C(=O)NCc1ccc(F)cn1)(c1ccccc1)n1ncc2c1nc(N)n1nc(-c3ccco3)nc21 [Example 117B]
Out: 3.2 nM

In: How about this molecule: CC(C(=O)N[C@@H]1CCCC[C@@H]1O)(c1ccccc1)n1ncc2c1nc(N)n1nc(-c3ccco3)nc21 (some centres unmarked)
Out: 1.8 nM

In: How about this molecule: Cc1cccc(CNC(=O)C(c2ccccc2)n2ncc3c2nc(N)n2nc(-c4ccco4)nc32)c1 (centres unmarked)
Out: 1.9 nM

In: How about this molecule: COCCNC(=O)C(C)(c1ccccc1)n1ncc2c1nc(N)n1nc(-c3ccco3)nc21 (centres unmarked)
Out: 7.6 nM

In: How about this molecule: CC(C(=O)N[C@@H]1CNC(=O)C1)(c1ccccc1)n1ncc2c1nc(N)n1nc(-c3ccco3)nc21 (some centres unmarked)
Out: 11.8 nM

In: How about this molecule: CC1(O)CCC(NC(=O)[C@@](C)(c2ccccc2)n2ncc3c2nc(N)n2nc(-c4ccco4)nc32)CC1 (some centres unmarked) [Example 69B]
Out: 3.9 nM

====

target: human A2A receptor (A2AR) (Homo sapiens (Human)); test: Luciferase reporter assay (HEK293-A2AR-luc2p/CRE/Hygro cells); type: cell-based; conditions: 3 nM CGS21680, 5 h incubation
Please provide measured log10 of IC50 for the entries that follow.
In our notation, the value equals log10 of IC50 in nM.

In: Look up log10 of IC50 for this compound: C[C@](C(=O)NCc1ncccc1F)(c1ccccc1)n1ncc2c1nc(N)n1nc(-c3ccco3)nc21 [Example 119B]
Out: 0.30

In: How about this compound: CC(C(=O)NC1CC1)(c1ccccc1)n1ncc2c1nc(N)n1nc(-c3ccco3)nc21 (stereo not shown)
Out: 1.17

In: How about this compound: COCCOc1ccc(N2CCN(CCNC(=O)C(C)(c3ccccc3)n3ncc4c3nc(N)n3nc(-c5ccco5)nc43)CC2)cc1 (stereo not shown)
Out: 1.35

In: How about this compound: CNC(=O)C(C)(c1ccccc1)n1ncc2c1nc(N)n1nc(-c3ccco3)nc21 (stereo not shown)
Out: 1.40

In: How about this compound: CC(C(=O)NC1CCCCC1)(c1ccccc1)n1ncc2c1nc(N)n1nc(-c3ccco3)nc21 (stereo not shown)
Out: 0.61

In: How about this compound: CC1(O)CCC(NC(=O)[C@@](C)(c2ccccc2)n2ncc3c2nc(N)n2nc(-c4ccco4)nc32)CC1 (stereo in doubt) [Example 33B]
Out: 0.36

In: How about this compound: CC(C(=O)N[C@H]1C[C@H](O)C1)(c1ccccc1)n1ncc2c1nc(N)n1nc(-c3ccco3)nc21 (relative stereo)
Out: 1.12

====

Please provide measured concentration at 1 h for the entries that follow.
assay: Mouse BBB assay; assay type: in vivo; details: oral 10 mg/kg, BLOQ: below limit of quantitation, Brain is 5 ng/g, read-out: Brain
I only need the number, in ng/g, no unit after it.

In: Look up concentration at 1 h for this molecule: COCCOc1ccc(N2CCN(CCn3ncc4c3nc(N)n3nc(-c5ccco5)nc43)CC2)cc1 [Preladenant, reference compound]
Out: 258

In: How about this molecule: C[C@](C(=O)N[C@@H]1CCC[C@@H]1O)(c1ccccc1)n1ncc2c1nc(N)n1nc(-c3ccco3)nc21 [Example 48B]
Out: 8.69

====

Target: human A2A receptor (A2AR) (Homo sapiens (Human), UniProt P29274)
Test: Luciferase reporter assay (HEK293-A2AR-luc2p/CRE/Hygro cells)
Assay type: cell-based
Details: 3 nM CGS21680, 5 h incubation
Procedure: HEK293 cells were maintained in Dulbecco's modified Eagle's medium (DMEM, Gibco) supplemented with 10% fetal bovine serum (FBS, Thermo Scientific), 100 units/mL penicillin (Gibco), and 0.1 mg/mL streptomycin (Gibco) in a humidified 37° C. environment with 5% CO2. Plasmid encoding wild-type human A2A receptor (A2AR) (in pcDNA3.1) was synthesized by Genscript (Nanjing, China). […] Expression level of A2AR in each single cell clone was determined using immunoblotting and FACS method. […]
Please provide measured IC50 for the entries that follow.
I only need the number, in nM, no unit after it.

In: Look up IC50 for this compound: CN1CCN(CCNC(=O)C(C)(c2ccccc2)n2ncc3c2nc(N)n2nc(-c4ccco4)nc32)CC1 (centres unmarked)
Out: 24.7

In: How about this compound: COCCOCCNC(=O)C(C)(c1ccccc1)n1ncc2c1nc(N)n1nc(-c3ccco3)nc21 (centres unmarked)
Out: 16.9

In: How about this compound: COc1ccccc1CNC(=O)C(CC(C)C)n1ncc2c1nc(N)n1nc(-c3ccco3)nc21 (centres unmarked)
Out: 16.1

In: How about this compound: CC(C(=O)NCCO)(c1ccccc1)n1ncc2c1nc(N)n1nc(-c3ccco3)nc21 (centres unmarked)
Out: 13.8

In: How about this compound: CC(C(=O)NCC1CCOCC1)(c1ccccc1)n1ncc2c1nc(N)n1nc(-c3ccco3)nc21 (centres unmarked)
Out: 10.4

In: How about this compound: CC(C(=O)NCCN1CCOCC1)(c1ccccc1)n1ncc2c1nc(N)n1nc(-c3ccco3)nc21 (centres unmarked)
Out: 9.3

In: How about this compound: CC(C(=O)N[C@H]1CCC[C@H]1O)(c1ccccc1)n1ncc2c1nc(N)n1nc(-c3ccco3)nc21 (some centres unmarked)
Out: 12.8

In: How about this compound: CC(C(=O)NC[C@H]1CCCO1)(c1ccccc1)n1ncc2c1nc(N)n1nc(-c3ccco3)nc21 (some centres unmarked)
Out: 5.3
